assay.remarks: DRUGMATRIX: ATPase, Na+/K+ enzyme inhibition (substrate: ATP)
Format: tissue-based, Sus scrofa, Heart
test.context: Not Active = under 50% inhibition at 10 µM
observation.type: Ki

{"compound": "Nc1c(Br)cc(Br)cc1CN[C@H]1CC[C@H](O)CC1 [AMBROXOL]", "observation.type": "Ki", "result.value": "Not Active"}
{"compound": "Nc1ncn([C@@H]2O[C@H](CO)[C@@H](O)[C@H]2O)c(=O)n1 [AZACITIDINE]", "observation.type": "Ki", "result.value": "Not Active"}
{"compound": "CC(C)C(=O)Nc1ccc([N+](=O)[O-])c(C(F)(F)F)c1 [FLUTAMIDE]", "observation.type": "Ki", "result.value": "Not Active"}
{"compound": "COc1cc2nc(N3CCN(C(=O)C4COc5ccccc5O4)CC3)nc(N)c2cc1OC (centres undefined) [DOXAZOSIN]", "observation.type": "Ki", "result.value": "Not Active"}

###

target: Melanocortin receptor 5 (Homo sapiens, UniProt P33032); further: in other assays of this panel Not Active means under 50% inhibition at 10 µM
Sequence (P33032 whole entry): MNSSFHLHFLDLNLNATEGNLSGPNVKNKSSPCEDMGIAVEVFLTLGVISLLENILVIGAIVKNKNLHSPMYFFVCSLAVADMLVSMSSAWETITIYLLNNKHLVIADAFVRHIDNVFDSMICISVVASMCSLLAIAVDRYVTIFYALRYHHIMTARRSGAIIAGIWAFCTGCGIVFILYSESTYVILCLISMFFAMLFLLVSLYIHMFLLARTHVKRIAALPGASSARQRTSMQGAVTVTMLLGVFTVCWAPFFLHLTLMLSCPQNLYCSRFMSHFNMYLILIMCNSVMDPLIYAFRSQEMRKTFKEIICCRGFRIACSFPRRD
Assay type: cell membranes, HEK293, Membrane
test.context: read-out: Ki
What Ki was measured for each of the following?
Numbers only, in µM.

As a guide, the following entries are already answered.
{"molecule": "CCCCc1oc2ccccc2c1C(=O)c1cc(I)c(OCCN(CC)CC)c(I)c1 [AMIODARONE]", "target": "Melanocortin receptor 5 (Homo sapiens, UniProt P33032)", "Ki [µM]": 8.91}
{"molecule": "CC/C(=C(\\c1ccccc1)c1ccc(OCCN(C)C)cc1)c1ccccc1 [TAMOXIFEN]", "target": "Melanocortin receptor 5 (Homo sapiens, UniProt P33032)", "Ki [µM]": 24.9}

Alright, here's another molecule for you.
Incoming: Consider the molecule CN(C)CCCN1c2ccccc2Sc2ccc(Cl)cc21 [CHLORPROMAZINE] and give its measured Ki.
Outgoing: 7.15

###

assay.remarks: DRUGMATRIX: Glutamate, NMDA, Phencyclidine radioligand binding (ligand: [3H] TCP)
Format: cell membranes, Rattus norvegicus, Wistar, Cerebral cortex, Membrane
test.context: Not Active = under 50% inhibition at 10 µM
observation.type: IC50

As a guide, the following entries are already answered.
{"molecule": "CC(C)C(=O)Nc1ccc([N+](=O)[O-])c(C(F)(F)F)c1 [FLUTAMIDE]", "IC50": "Not Active"}
{"molecule": "CC(C)(C)NC(=O)[C@@H]1C[C@@H]2CCCC[C@@H]2CN1C[C@@H](O)[C@H](Cc1ccccc1)NC(=O)[C@H](CC(N)=O)NC(=O)c1ccc2ccccc2n1", "IC50": "Not Active"}
{"molecule": "O=C1CC[C@@H](N2C(=O)c3ccccc3C2=O)C(=O)N1", "IC50": "Not Active"}
{"molecule": "C[C@](N)(Cc1ccc(O)c(O)c1)C(=O)O", "IC50": "Not Active"}
{"molecule": "CC(NC(C)(C)C)C(=O)c1cccc(Cl)c1 (stereo not drawn)", "IC50": "Not Active"}

Please go through the list and note IC50 for each molecule.
1. CC(O)CO (stereo not drawn)
2. CC[C@]1(O)C[C@H]2CN(CCc3c([nH]c4ccccc34)[C@@](C(=O)OC)(c3cc4c(cc3OC)N(C=O)[C@H]3[C@@](O)(C(=O)OC)[C@H](OC(C)=O)[C@]5(CC)C=CCN6CC[C@]43[C@@H]65)C2)C1
3. CNCCc1ccccn1

Outgoing:
["Not Active", "Not Active", "Not Active"]

###

target: Receptor tyrosine-protein kinase erbB-2 (Homo sapiens); further: in other assays of this panel Not Active means under 50% inhibition at 10 µM;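 further: inhibition of HER2 kinase enzyme activity, measured with Poly(Glu:Tyr) as the phosphorylation substrate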
Sequence (P04626 whole entry): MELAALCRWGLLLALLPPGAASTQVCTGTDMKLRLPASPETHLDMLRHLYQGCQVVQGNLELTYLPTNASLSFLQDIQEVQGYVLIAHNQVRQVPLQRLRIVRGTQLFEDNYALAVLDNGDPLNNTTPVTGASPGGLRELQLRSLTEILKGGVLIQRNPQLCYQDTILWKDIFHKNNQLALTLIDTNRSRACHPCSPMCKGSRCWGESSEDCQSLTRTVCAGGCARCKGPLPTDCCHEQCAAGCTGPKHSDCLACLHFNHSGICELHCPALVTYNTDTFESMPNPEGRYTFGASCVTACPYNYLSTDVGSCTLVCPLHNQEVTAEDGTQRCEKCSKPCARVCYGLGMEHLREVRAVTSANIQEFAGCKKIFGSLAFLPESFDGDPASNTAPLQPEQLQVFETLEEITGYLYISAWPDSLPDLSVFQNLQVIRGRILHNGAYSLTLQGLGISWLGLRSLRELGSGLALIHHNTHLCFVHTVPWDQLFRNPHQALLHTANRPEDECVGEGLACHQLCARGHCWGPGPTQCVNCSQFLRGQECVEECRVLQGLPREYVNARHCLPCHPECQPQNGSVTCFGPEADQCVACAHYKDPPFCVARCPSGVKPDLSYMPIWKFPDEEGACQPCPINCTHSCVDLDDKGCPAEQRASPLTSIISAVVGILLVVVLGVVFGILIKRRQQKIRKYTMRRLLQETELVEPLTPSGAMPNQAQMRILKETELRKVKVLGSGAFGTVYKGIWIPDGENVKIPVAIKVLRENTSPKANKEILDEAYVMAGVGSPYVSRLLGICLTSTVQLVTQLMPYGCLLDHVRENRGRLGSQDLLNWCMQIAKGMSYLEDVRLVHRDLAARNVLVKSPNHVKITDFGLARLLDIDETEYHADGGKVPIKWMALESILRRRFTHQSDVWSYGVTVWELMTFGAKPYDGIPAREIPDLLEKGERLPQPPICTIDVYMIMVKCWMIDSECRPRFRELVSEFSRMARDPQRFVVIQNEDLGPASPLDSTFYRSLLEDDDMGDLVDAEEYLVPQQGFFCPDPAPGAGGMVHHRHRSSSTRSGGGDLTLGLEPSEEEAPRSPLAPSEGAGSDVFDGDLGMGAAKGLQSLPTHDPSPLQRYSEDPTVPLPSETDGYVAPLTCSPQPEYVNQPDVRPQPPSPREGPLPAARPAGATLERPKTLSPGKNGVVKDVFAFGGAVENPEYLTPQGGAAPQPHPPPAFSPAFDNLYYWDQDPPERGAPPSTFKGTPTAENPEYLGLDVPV
assay.remarks: biochemical
Format: cell-based, Insect cells
test.context: insect cells
observation.type: IC50

As a guide, the following entries are already answered.
{"compound": "CC(O)CO (stereo unspecified) [PROPYLENE GLYCOL]", "observation.type": "IC50", "result.value": "Not Active"}
{"compound": "NCCCCCC(=O)O [AMINOCAPROIC ACID]", "observation.type": "IC50", "result.value": "Not Active"}
{"compound": "Cc1noc(NS(=O)(=O)c2ccc(N)cc2)c1C [SULFISOXAZOLE]", "observation.type": "IC50", "result.value": "Not Active"}
{"compound": "Cc1onc(O)c1CC(N)C(=O)O (racemic) [(R,S)-AMPA]", "observation.type": "IC50", "result.value": "Not Active"}
{"compound": "CC1(C)O[C@@H]2C[C@H]3[C@@H]4CCC5=CC(=O)CC[C@]5(C)[C@@]4(F)[C@@H](O)C[C@]3(C)[C@]2(C(=O)CCl)O1 [HALCINONIDE]", "observation.type": "IC50", "result.value": "Not Active"}
{"compound": "N[C@@H](Cc1ccc(N(CCCl)CCCl)cc1)C(=O)O", "observation.type": "IC50", "result.value": "Not Active"}

Please go through the list and note IC50 for each compound.
1. Cc1c(C)c2c(c(C)c1O)CCC(C)(COc1ccc(CC3SC(=O)NC3=O)cc1)O2 (stereo unspecified) [TROGLITAZONE]
2. Cc1c(O)c(=O)ccn1C [DEFERIPRONE]
3. N#CC(C#N)=Cc1ccc(O)c(O)c1 [TYRPHOSTIN 23]
4. Clc1cccc(Cl)c1NC1=NCCN1 [CLONIDINE]

Outgoing:
Not Active
Not Active
Not Active
Not Active

Please go through the list and note IC50 for each compound.
1. CCOc1ccc(NC(C)=O)cc1 [PHENACETIN]
2. O=c1[nH]c(=O)n([C@H]2C[C@H](O)[C@@H](CO)O2)cc1I [IDOXURIDINE]
3. Cc1nc2n(c(=O)c1CCN1CCC(c3noc4cc(F)ccc34)CC1)CCCC2 [RISPERIDONE]
4. Cc1c(C)c2c(c(C)c1O)CC[C@@](C)(CCC[C@H](C)CCC[C@H](C)CCCC(C)C)O2 [ALPHA-TOCOPHEROL]
5. COc1ccc(C[C@H]2NC[C@H](O)[C@H]2OC(C)=O)cc1 [ANISOMYCIN]
6. O=C(O)CCCc1ccc(N(CCCl)CCCl)cc1 [CHLORAMBUCIL]
7. CC[C@@H](CO)NC(=O)[C@@H]1C=C2c3cccc4[nH]cc(c34)C[C@H]2N(C)C1 [METHYLERGONOVINE]

Outgoing:
Not Active
Not Active
Not Active
Not Active
Not Active
Not Active
Not Active

Please go through the list and note IC50 for each compound.
1. OCCN(CCO)c1nc(N2CCCCC2)c2nc(N(CCO)CCO)nc(N3CCCCC3)c2n1 [DIPYRIDAMOLE]
2. CNCCc1ccccn1 [BETAHISTINE]

Outgoing:
1. Not Active
2. Not Active

Please go through the list and note IC50 for each compound.
1. CCCCc1nc(Cl)c(CO)n1Cc1ccc(-c2ccccc2-c2nnn[nH]2)cc1 [LOSARTAN]
2. Cc1oncc1C(=O)Nc1ccc(C(F)(F)F)cc1 [LEFLUNOMIDE]
3. Nc1nc2ccc(OC(F)(F)F)cc2s1 [RILUZOLE]
4. CC[C@]1(O)C[C@H]2CN(CCc3c([nH]c4ccccc34)[C@@](C(=O)OC)(c3cc4c(cc3OC)N(C=O)[C@H]3[C@@](O)(C(=O)OC)[C@H](OC(C)=O)[C@]5(CC)C=CCN6CC[C@]43[C@@H]65)C2)C1 [VINCRISTINE]

Outgoing:
["Not Active", "Not Active", "Not Active", "Not Active"]

Please go through the list and note IC50 for each compound.
1. CNNCc1ccc(C(=O)NC(C)C)cc1 [PROCARBAZINE]
2. Cc1cccc(N(C)C(=S)Oc2ccc3ccccc3c2)c1 [TOLNAFTATE]

Outgoing:
["Not Active", "Not Active"]

Please go through the list and note IC50 for each compound.
1. CC(C)(C)NC(=O)[C@@H]1C[C@@H]2CCCC[C@@H]2CN1C[C@@H](O)[C@H](Cc1ccccc1)NC(=O)[C@H](CC(N)=O)NC(=O)c1ccc2ccccc2n1
2. C[C@@H]1CN(c2c(F)c(N)c3c(=O)c(C(=O)O)cn(C4CC4)c3c2F)C[C@H](C)N1 [SPARFLOXACIN]
3. CN1CCN(CCCN2c3ccccc3Sc3ccc(Cl)cc32)CC1 [PROCHLORPERAZINE]

Outgoing:
1. Not Active
2. Not Active
3. Not Active

Please go through the list and note IC50 for each compound.
1. CC(=O)O[C@@]12CO[C@@H]1C[C@H](O)[C@@]1(C)C(=O)[C@H](O)C3=C(C)[C@@H](OC(=O)[C@H](O)[C@@H](NC(=O)OC(C)(C)C)c4ccccc4)C[C@@](O)([C@@H](OC(=O)c4ccccc4)[C@H]21)C3(C)C.O.O.O [DOCETAXEL]
2. Nc1c2c(nc3ccccc13)CCCC2 [TACRINE]
3. C[C@](N)(Cc1ccc(O)c(O)c1)C(=O)O [METHYLDOPA]
4. CC1=C2C(=CO[C@H](C)[C@H]2C)C(O)=C(C(=O)O)C1=O [CITRININ]

Outgoing:
1. Not Active
2. Not Active
3. Not Active
4. Not Active

Please go through the list and note IC50 for each compound.
1. O=NN(CCCl)C(=O)NC1CCCCC1 [LOMUSTINE]
2. NS(=O)(=O)c1cc2c(cc1Cl)NC(C(Cl)Cl)NS2(=O)=O (stereo unspecified) [TRICHLORMETHIAZIDE]
3. CC(C)N1CCN(c2ccc(OCC3COC(Cn4cncn4)(c4ccc(Cl)cc4Cl)O3)cc2)CC1 (stereo unspecified) [TERCONAZOLE]

Outgoing:
1. Not Active
2. Not Active
3. Not Active

Incoming: Consider the compound CN(C)CCCN1c2ccccc2Sc2ccccc21 [PROMAZINE] and give its measured IC50.
Outgoing: Not Active
